Every entry's value here was drawn from BigSolDB 2.1.

- conditions.used: in methanol, 318.15 K
experimental.endpoint: solubility (mole fraction)

Tell me solubility (mole fraction) reported for C=C(C)[C@@H]1CC[C@]2(C(=O)O)CC[C@]3(C)[C@H](CC[C@@H]4[C@@]5(C)CCC(=O)C(C)(C)[C@@H]5CC[C@]43C)[C@@H]12
0.0027

###

- conditions.used: in methanol, 278.15 K
experimental.endpoint: solubility (mole fraction)
Reply with just the number.

Tell me solubility (mole fraction) reported for C=C(C)[C@@H]1CC[C@]2(C(=O)O)CC[C@]3(C)[C@H](CC[C@@H]4[C@@]5(C)CCC(=O)C(C)(C)[C@@H]5CC[C@]43C)[C@@H]12
0.00129

###

- conditions.used: in isopropanol, 313.15 K
experimental.endpoint: solubility (mole fraction)
Reply with just the number.

Tell me solubility (mole fraction) reported for C=C(C)[C@@H]1CC[C@]2(C(=O)O)CC[C@]3(C)[C@H](CC[C@@H]4[C@@]5(C)CCC(=O)C(C)(C)[C@@H]5CC[C@]43C)[C@@H]12
0.0138

###

- conditions.used: in 2-propoxyethanol, 278.15 K
experimental.endpoint: solubility (mole fraction)
Reply with just the number.

Tell me solubility (mole fraction) reported for C=C(C)[C@@H]1CC[C@]2(C(=O)O)CC[C@]3(C)[C@H](CC[C@@H]4[C@@]5(C)CCC(=O)C(C)(C)[C@@H]5CC[C@]43C)[C@@H]12
0.0239

###

- conditions.used: in ethanol, 283.15 K
experimental.endpoint: solubility (mole fraction)

Tell me solubility (mole fraction) reported for C=C(C)[C@@H]1CC[C@]2(C(=O)O)CC[C@]3(C)[C@H](CC[C@@H]4[C@@]5(C)CCC(=O)C(C)(C)[C@@H]5CC[C@]43C)[C@@H]12
0.00399

###

- conditions.used: in 2-propoxyethanol, 288.15 K
experimental.endpoint: solubility (mole fraction)
Reply with just the number.

Tell me solubility (mole fraction) reported for C=C(C)[C@@H]1CC[C@]2(C(=O)O)CC[C@]3(C)[C@H](CC[C@@H]4[C@@]5(C)CCC(=O)C(C)(C)[C@@H]5CC[C@]43C)[C@@H]12
0.025

###

- conditions.used: in 2-methoxyethanol, 288.15 K
experimental.endpoint: solubility (mole fraction)

Tell me solubility (mole fraction) reported for C=C(C)[C@@H]1CC[C@]2(C(=O)O)CC[C@]3(C)[C@H](CC[C@@H]4[C@@]5(C)CCC(=O)C(C)(C)[C@@H]5CC[C@]43C)[C@@H]12
0.00969

###

- conditions.used: in n-propanol, 293.15 K
experimental.endpoint: solubility (mole fraction)
Reply with just the number.

Tell me solubility (mole fraction) reported for C=C(C)[C@@H]1CC[C@]2(C(=O)O)CC[C@]3(C)[C@H](CC[C@@H]4[C@@]5(C)CCC(=O)C(C)(C)[C@@H]5CC[C@]43C)[C@@H]12
0.00914

###

- conditions.used: in 2-propoxyethanol, 293.15 K
experimental.endpoint: solubility (mole fraction)

Tell me solubility (mole fraction) reported for C=C(C)[C@@H]1CC[C@]2(C(=O)O)CC[C@]3(C)[C@H](CC[C@@H]4[C@@]5(C)CCC(=O)C(C)(C)[C@@H]5CC[C@]43C)[C@@H]12
0.0264

###

- conditions.used: in methanol, 303.15 K
experimental.endpoint: solubility (mole fraction)
Reply with just the number.

Tell me solubility (mole fraction) reported for C=C(C)[C@@H]1CC[C@]2(C(=O)O)CC[C@]3(C)[C@H](CC[C@@H]4[C@@]5(C)CCC(=O)C(C)(C)[C@@H]5CC[C@]43C)[C@@H]12
0.00192

###

- conditions.used: in 2-methoxyethanol, 298.15 K
experimental.endpoint: solubility (mole fraction)
Reply with just the number.

Tell me solubility (mole fraction) reported for C=C(C)[C@@H]1CC[C@]2(C(=O)O)CC[C@]3(C)[C@H](CC[C@@H]4[C@@]5(C)CCC(=O)C(C)(C)[C@@H]5CC[C@]43C)[C@@H]12
0.0108

###

- conditions.used: in n-propanol, 318.15 K
experimental.endpoint: solubility (mole fraction)
Reply with just the number.

Tell me solubility (mole fraction) reported for C=C(C)[C@@H]1CC[C@]2(C(=O)O)CC[C@]3(C)[C@H](CC[C@@H]4[C@@]5(C)CCC(=O)C(C)(C)[C@@H]5CC[C@]43C)[C@@H]12
0.0163

###

- conditions.used: in n-propanol, 278.15 K
experimental.endpoint: solubility (mole fraction)
Reply with just the number.

Tell me solubility (mole fraction) reported for C=C(C)[C@@H]1CC[C@]2(C(=O)O)CC[C@]3(C)[C@H](CC[C@@H]4[C@@]5(C)CCC(=O)C(C)(C)[C@@H]5CC[C@]43C)[C@@H]12
0.00728

###

- conditions.used: in ethanol, 318.15 K
experimental.endpoint: solubility (mole fraction)
Reply with just the number.

Tell me solubility (mole fraction) reported for C=C(C)[C@@H]1CC[C@]2(C(=O)O)CC[C@]3(C)[C@H](CC[C@@H]4[C@@]5(C)CCC(=O)C(C)(C)[C@@H]5CC[C@]43C)[C@@H]12
0.00848

###

- conditions.used: in methanol, 293.15 K
experimental.endpoint: solubility (mole fraction)
Reply with just the number.

Tell me solubility (mole fraction) reported for C=C(C)[C@@H]1CC[C@]2(C(=O)O)CC[C@]3(C)[C@H](CC[C@@H]4[C@@]5(C)CCC(=O)C(C)(C)[C@@H]5CC[C@]43C)[C@@H]12
0.00157

###

- conditions.used: in 2-propoxyethanol, 303.15 K
experimental.endpoint: solubility (mole fraction)
Reply with just the number.

Tell me solubility (mole fraction) reported for C=C(C)[C@@H]1CC[C@]2(C(=O)O)CC[C@]3(C)[C@H](CC[C@@H]4[C@@]5(C)CCC(=O)C(C)(C)[C@@H]5CC[C@]43C)[C@@H]12
0.0288

###

- conditions.used: in ethanol, 278.15 K
experimental.endpoint: solubility (mole fraction)
Reply with just the number.

Tell me solubility (mole fraction) reported for C=C(C)[C@@H]1CC[C@]2(C(=O)O)CC[C@]3(C)[C@H](CC[C@@H]4[C@@]5(C)CCC(=O)C(C)(C)[C@@H]5CC[C@]43C)[C@@H]12
0.00376

###

- conditions.used: in ethanol, 313.15 K
experimental.endpoint: solubility (mole fraction)
Reply with just the number.

Tell me solubility (mole fraction) reported for C=C(C)[C@@H]1CC[C@]2(C(=O)O)CC[C@]3(C)[C@H](CC[C@@H]4[C@@]5(C)CCC(=O)C(C)(C)[C@@H]5CC[C@]43C)[C@@H]12
0.00757

###

- conditions.used: in isopropanol, 278.15 K
experimental.endpoint: solubility (mole fraction)
Reply with just the number.

Tell me solubility (mole fraction) reported for C=C(C)[C@@H]1CC[C@]2(C(=O)O)CC[C@]3(C)[C@H](CC[C@@H]4[C@@]5(C)CCC(=O)C(C)(C)[C@@H]5CC[C@]43C)[C@@H]12
0.00531

###

- conditions.used: in methanol, 283.15 K
experimental.endpoint: solubility (mole fraction)
Reply with just the number.

Tell me solubility (mole fraction) reported for C=C(C)[C@@H]1CC[C@]2(C(=O)O)CC[C@]3(C)[C@H](CC[C@@H]4[C@@]5(C)CCC(=O)C(C)(C)[C@@H]5CC[C@]43C)[C@@H]12
0.00136

###

- conditions.used: in n-propanol, 313.15 K
experimental.endpoint: solubility (mole fraction)

Tell me solubility (mole fraction) reported for C=C(C)[C@@H]1CC[C@]2(C(=O)O)CC[C@]3(C)[C@H](CC[C@@H]4[C@@]5(C)CCC(=O)C(C)(C)[C@@H]5CC[C@]43C)[C@@H]12
0.0144

###

- conditions.used: in isopropanol, 283.15 K
experimental.endpoint: solubility (mole fraction)

Tell me solubility (mole fraction) reported for C=C(C)[C@@H]1CC[C@]2(C(=O)O)CC[C@]3(C)[C@H](CC[C@@H]4[C@@]5(C)CCC(=O)C(C)(C)[C@@H]5CC[C@]43C)[C@@H]12
0.00564

###

- conditions.used: in ethanol, 298.15 K
experimental.endpoint: solubility (mole fraction)
Reply with just the number.

Tell me solubility (mole fraction) reported for C=C(C)[C@@H]1CC[C@]2(C(=O)O)CC[C@]3(C)[C@H](CC[C@@H]4[C@@]5(C)CCC(=O)C(C)(C)[C@@H]5CC[C@]43C)[C@@H]12
0.00566

###

- conditions.used: in isopropanol, 293.15 K
experimental.endpoint: solubility (mole fraction)
Reply with just the number.

Tell me solubility (mole fraction) reported for C=C(C)[C@@H]1CC[C@]2(C(=O)O)CC[C@]3(C)[C@H](CC[C@@H]4[C@@]5(C)CCC(=O)C(C)(C)[C@@H]5CC[C@]43C)[C@@H]12
0.0075

###

- conditions.used: in n-propanol, 288.15 K
experimental.endpoint: solubility (mole fraction)
Reply with just the number.

Tell me solubility (mole fraction) reported for C=C(C)[C@@H]1CC[C@]2(C(=O)O)CC[C@]3(C)[C@H](CC[C@@H]4[C@@]5(C)CCC(=O)C(C)(C)[C@@H]5CC[C@]43C)[C@@H]12
0.00827
